# Tested on: OVCAR-8 ovarian
# assay.explanation: NCI-60 one-dose screen, 48 h (100 = growth as untreated, 0 = no growth, -100 = all killed)
# test.parameters: 10 µM unless noted
This is part of a sample that, as a whole, favours compounds with a hit. Of some 83,000 tested, about 20% had one in any assay.
value.type: growth (%)
Write the answer as a number in %, unit excluded.

Example compounds with recorded growth:
INSERT INTO assay_data (chem_smiles, unit_label, recorded_measurement) VALUES
  ('CC1=C(C)C(=O)C(Nc2cccc(C)c2)=C(Br)C1=O', '%', 95.7),
  ('CC1=C(C)C(=O)C(Nc2cccc(C(=O)OC(C)(C)C)c2)=CC1=O', '%', 82.2),
  ('CC(C)Sc1nc(-c2ccccc2)c(C#N)c(N2CCOCC2)n1', '%', 69.3),
  ('Cc1cc(C)cc(NC2=C(Cl)C(=O)c3nc(C)ccc3C2=O)c1', '%', 73.1),
  ('Cc1csc(/N=C(N)/N=C(\N)c2cccs2)n1', '%', 101);

Query string: Can you share its growth? I mean this compound: CNc1sc(S(=O)(=O)NC)nc1S(=O)(=O)c1ccc(C)cc1
Result string: 102

Query string: Next: COc1ccc(-c2nc(C#N)c(N3CCC(S(=O)(=O)N4CCOCC4)CC3)o2)cc1
Result string: 106

Query string: Next: CNC(=O)c1cc(N2CCc3cc(NC(=O)Nc4ccc(N5CCN(C)CC5)c(C(F)(F)F)c4)ccc32)ccn1
Result string: 95.9

Query string: Next: Cc1ccc([C@H]2c3[nH]c4ccccc4c3C[C@H]3C(=O)N(CCCCCCC(=O)NO)CC(=O)N23)s1
Result string: 44.4

Query string: Next: CC1=C(C)C(=O)C(Nc2ccc3c(c2)OCCO3)=C(Br)C1=O
Result string: 100

###

# System: MCF7 breast
# assay.explanation: NCI-60 one-dose screen, 48 h (100 = growth as untreated, 0 = no growth, -100 = all killed)
# test.parameters: 10 µM unless noted
About 83,000 compounds went through this panel and 20% of them were active in at least one assay; those are over-represented in the sample as a whole.
growth of 60% or higher: T. Under 60%: F.

Example entries and their recorded answers appear below.
INSERT INTO results (compound, assayed_target, label_value) VALUES
  ('O=c1[nH][nH]c(-c2ccc(F)cc2)c1-c1nc2ccccc2s1', 'MCF7 breast', 'T'),
  ('Nc1ccc(Nc2ncnc3sc4c(c23)CCN(Cc2ccccc2)C4)cc1', 'MCF7 breast', 'T'),
  ('C#CCOc1ccccc1C(OC(=O)c1ccccc1)C(=O)NC(C)(C)C(C)(C)C (stereo not given)', 'MCF7 breast', 'T'),
  ('C#CCOc1cccc(/C(N)=N/C(N)=N/c2nc3ccccc3s2)c1', 'MCF7 breast', 'T');

Attention now turns to another entry.
Query string: growth >= 60% for COc1ccc(/C=N/N=C(/c2ccccc2)c2ccc3nc(-c4ccc(Cl)cc4)[nH]c3c2)cc1 ?
Result string: T

###

# Tested on: NCI-H522 lung
# assay.explanation: NCI-60 one-dose screen, 48 h (100 = growth as untreated, 0 = no growth, -100 = all killed)
# test.parameters: 10 µM unless noted
About 83,000 compounds went through this panel and 20% of them were active in at least one assay; those are over-represented in the sample as a whole.
growth of 10% or higher: t. Under 10%: f.

Query string: growth >= 10% for O=c1oc2ccc(-c3ccc(F)cc3F)cc2c(=O)n1-c1ccc(Br)cc1F ?
Result string: t

Query string: Next: CC(=O)OC[C@]12CC[C@@H](C(=O)/C=C/c3cccnc3)[C@@H]1[C@H]1CC[C@@H]3[C@@]4(C)CC[C@H](OC(C)=O)C(C)(C)[C@@H]4CC[C@@]3(C)[C@]1(C)CC2
Result string: f

Query string: Next: CCOC(=O)c1ccc(NC2=C(Cl)C(=O)c3nc(C)ccc3C2=O)cc1
Result string: t

Query string: Next: CCOC(=O)Nc1ccc2c(ccn2C(=O)c2cccc(F)c2)c1
Result string: f

Query string: Next: CCS(=O)(=O)Nc1ccc(C(=O)CC2(O)C(=O)Nc3ccccc32)cc1 (stereo not given)
Result string: t

The origin of these recorded values is PubChem BioAssay (NCI).
